B1: Storkhead-box protein 2, residues 64 to 141; numbered along this chain, Q9P2F5 (parent)
chain: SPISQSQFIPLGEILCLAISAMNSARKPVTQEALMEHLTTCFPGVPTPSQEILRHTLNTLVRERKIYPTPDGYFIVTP

Variants of: B1
Assay: abundance fitness (aPCA) (normalised: wild type 0, dead -1); higher = more abundant; growth selection in yeast, the domain comes from the species named
Conditions: Homo sapiens
The threshold is inclusive: abundance fitness of exactly -0.03 counts as 1; values below receive 0.

F74T ... 0

Next item in the queue.
Input: Please check the record Q7I and state if its abundance fitness is at or above -0.03.
Output: 0

Each recorded value in this set is attributed to the Human Domainome abundance scans (Beltran et al. 2025).
